test system: Meloidogyne hapla J2; test: proportion of mobile M. hapla J2 relative to DMSO control (fraction of DMSO control); higher = more viable, less nematicidal, active = 0.7 or less; conditions: 60 µM; 5 days; temperature: 20 °C
measurement-name: proportion of mobile M. hapla J2
Please state the value as a number alone, without comment.

>  <structure-smiles-string>
CCOc1ccc(NC(=O)CSc2nnc(-c3ccccc3Cl)o2)cc1

>  <proportion of mobile M. hapla J2>
0.974

$$$$

Task: Lab note: record proportion of mobile M. hapla J2 of Cc1ccc(SCc2nc(-c3cccnc3)no2)cc1 tested on Meloidogyne hapla J2.
Result: 1.1

Task: Lab note: record proportion of mobile M. hapla J2 of COc1cccc(-c2noc(-c3ccccc3C)n2)c1 tested on Meloidogyne hapla J2.
Result: 1.06

Task: Lab note: record proportion of mobile M. hapla J2 of COc1ccccc1-c1nnc(SCC(=O)Nc2ccc(Br)cn2)o1 tested on Meloidogyne hapla J2.
Result: 0.908

The measurements presented in this section are drawn from the supplement of paper PMC11219838.
